From: patent US8084467B2

- target or test system: CB2 receptor (Mus musculus, UniProt P47936)
- Construct: membranes were prepared from frozen mouse spleen; from tissue; host or cells: mouse spleen
- Sequence (P47936 whole entry): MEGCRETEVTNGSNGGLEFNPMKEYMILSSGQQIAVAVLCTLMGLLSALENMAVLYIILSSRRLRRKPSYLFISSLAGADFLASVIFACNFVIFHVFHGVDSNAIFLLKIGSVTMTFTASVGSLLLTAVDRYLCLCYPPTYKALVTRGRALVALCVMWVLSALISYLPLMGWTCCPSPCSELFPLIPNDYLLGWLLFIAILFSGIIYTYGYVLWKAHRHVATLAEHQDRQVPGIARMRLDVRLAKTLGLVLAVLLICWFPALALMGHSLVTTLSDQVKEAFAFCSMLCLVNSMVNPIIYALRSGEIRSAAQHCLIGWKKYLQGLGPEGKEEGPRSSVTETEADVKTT
- protocol: CB2 receptor binding, mouse spleen membranes, same manner as the CB1 binding assay
- measurement conditions: mouse spleen membranes, [3H] CP-55,940; read-out: affinities Ki CB2
Please provide measured Ki for the entries that follow.
Numbers only; they are read as µM.

[Q] Tell me the measured Ki of Cc1c(C(=O)NN2CCCCC2)nn(-c2ccc(Cl)cc2Cl)c1-c1ccc(C(N)=S)cc1 , please.
[A] 0.127

[Q] Tell me the measured Ki of COCc1c(C(=O)NC2CCCCC2)nn(-c2ccc(Cl)cc2Cl)c1-c1ccc(-c2ccncc2)cc1 , please.
[A] 2.98

[Q] Tell me the measured Ki of COCc1c(C(=O)NC2CCCCC2)nn(-c2ccc(Cl)cc2Cl)c1-c1ccc(Br)cc1 , please.
[A] 0.495

[Q] Tell me the measured Ki of Cc1c(C(=O)NN2CCCCC2)nn(-c2ccc(Cl)cc2Cl)c1-c1ccc(C(=O)O)cc1 , please.
[A] 0.934

[Q] Tell me the measured Ki of CCOCc1c(C(=O)NC23CC4CC(CC(C4)C2)C3)nn(-c2ccc(Cl)cc2Cl)c1-c1ccc(Br)cc1 , please.
[A] 47.5

[Q] Tell me the measured Ki of COCc1c(C(=O)NC2CCCCC2)nn(-c2ccc(Cl)cc2Cl)c1-c1ccc(-c2cccnc2)cc1 , please.
[A] 0.646

[Q] Tell me the measured Ki of CN(C(=O)c1nn(-c2ccc(Cl)cc2Cl)c(-c2ccc(Br)cc2)c1CO)C1CCCCC1 , please.
[A] 1.8

[Q] Tell me the measured Ki of COCc1c(C(=O)NC2CCCCC2)nn(-c2ccc(Cl)cc2Cl)c1-c1ccc(I)cc1 , please.
[A] 0.675

[Q] Tell me the measured Ki of Cc1c(C=CC23CC4CC(CC(C4)C2)C3)nn(-c2ccc(Cl)cc2Cl)c1-c1ccc(Br)cc1 , please.
[A] 4.01

[Q] Tell me the measured Ki of Cc1c(NC(=O)NC23CC4CC(CC(C4)C2)C3)nn(-c2ccc(Cl)cc2Cl)c1-c1ccc(Br)cc1 , please.
[A] 0.756

[Q] Tell me the measured Ki of Cc1c(CCC2CCCCC2)nn(-c2ccc(Cl)cc2Cl)c1-c1ccc(Br)cc1 , please.
[A] 26.4

[Q] Tell me the measured Ki of Cc1c(C(=O)N(C)C2CCCCC2)nn(-c2ccc(Cl)cc2Cl)c1-c1ccc(-c2ccncc2)cc1 , please.
[A] 3.29

[Q] Tell me the measured Ki of O=C(NN1CCCCC1)c1nn(-c2ccc(-c3cccnc3)cc2Cl)c(-c2ccc(-c3cccnc3)cc2)c1CO [Compound 3-19] , please.
[A] 1.92

[Q] Tell me the measured Ki of Cc1c(C(=O)NN2CCCCC2)nn(-c2ccc(Cl)cc2Cl)c1-c1ccc(-c2cccnc2)cc1 , please.
[A] 1.33

---

- target or test system: CB1 cannabinoid receptor (Rattus norvegicus, UniProt P20272)
- Construct: membranes were prepared from rat forebrain membranes; from tissue; host or cells: rat forebrain
- Sequence (P20272 whole entry): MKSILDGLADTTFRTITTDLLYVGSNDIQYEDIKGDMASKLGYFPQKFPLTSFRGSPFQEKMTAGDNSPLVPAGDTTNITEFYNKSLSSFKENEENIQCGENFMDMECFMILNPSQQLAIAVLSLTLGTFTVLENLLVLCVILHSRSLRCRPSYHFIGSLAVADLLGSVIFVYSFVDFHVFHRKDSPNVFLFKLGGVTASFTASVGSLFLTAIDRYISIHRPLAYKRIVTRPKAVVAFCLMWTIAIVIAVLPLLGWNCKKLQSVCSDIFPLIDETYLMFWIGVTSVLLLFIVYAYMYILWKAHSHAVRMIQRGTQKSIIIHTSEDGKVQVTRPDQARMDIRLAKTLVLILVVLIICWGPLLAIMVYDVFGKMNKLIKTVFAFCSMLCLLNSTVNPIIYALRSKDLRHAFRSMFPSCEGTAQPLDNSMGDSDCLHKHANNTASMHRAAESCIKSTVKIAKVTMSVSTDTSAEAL
- protocol: CB1 receptor binding, rat forebrain membranes, [3H] CP-55,940 displacement
- measurement conditions: ratio of CB2 Ki to CB1 Ki
Please provide measured selectivity CB1 for the entries that follow.

[Q] Tell me the measured selectivity CB1 of O=C(NN1CCCCC1)c1nn(-c2ccc(Cl)cc2Cl)c(-c2ccc(-c3nnn[nH]3)cc2)c1CO , please.
[A] 7.4

[Q] Tell me the measured selectivity CB1 of COCc1c(C(=O)NC2CCCCC2)nn(-c2ccc(Cl)cc2Cl)c1-c1ccc(-c2ccccn2)cc1 , please.
[A] 5.4

[Q] Tell me the measured selectivity CB1 of CN(C(=O)c1nn(-c2ccc(Cl)cc2Cl)c(-c2ccc(I)cc2)c1CO)C1CCCCC1 , please.
[A] 29.3

[Q] Tell me the measured selectivity CB1 of CCCCCC=Cc1nn(-c2ccc(Cl)cc2Cl)c(-c2ccc(Br)cc2)c1C , please.
[A] 6.9

[Q] Tell me the measured selectivity CB1 of COCc1c(C(=O)NN2CCCCC2)nn(-c2ccc(Cl)cc2Cl)c1-c1ccc(Br)cc1 , please.
[A] 31

---

- target or test system: CB1 cannabinoid receptor (Rattus norvegicus)
- Construct: membranes were prepared from rat forebrain membranes; from tissue; host or cells: rat forebrain
- protocol: CB1 receptor binding, rat forebrain membranes, [3H] CP-55,940 displacement
- measurement conditions: rat forebrain membranes, 0.8 nM [3H] CP-55,940; read-out: affinities Ki CB1
value kind: pKi
Please treat pKi as minus the base-10 logarithm of the molar concentration.

[Q] Tell me the measured pKi of Cc1c(NC(=O)NC2CCCCC2)nn(-c2ccc(Cl)cc2Cl)c1-c1ccc(Br)cc1 [Compound 3-8] , please.
[A] 8.17

[Q] Tell me the measured pKi of Cc1c(NC(=O)N(C)C2CCCCC2)nn(-c2ccc(Cl)cc2Cl)c1-c1ccc(Br)cc1 [Compound 3-11] , please.
[A] 7.54

[Q] Tell me the measured pKi of COCOCc1c(C(=O)N2CCCCC2)nn(-c2ccc(Cl)cc2Cl)c1-c1ccc(Br)cc1 [Compound 1-14] , please.
[A] 6.40

[Q] Tell me the measured pKi of COCc1c(C(=O)NC2CCCCC2)nn(-c2ccc(Cl)cc2Cl)c1-c1ccc(-c2ccncc2)cc1 [Compound 1-19] , please.
[A] 6.80

[Q] Tell me the measured pKi of COCc1c(C(=O)NC2CCCCC2)nn(-c2ccc(Cl)cc2Cl)c1-c1ccc(-c2ccsc2)cc1 [Compound 1-17] , please.
[A] 6.62

[Q] Tell me the measured pKi of COCc1c(C(=O)NC2CCCCC2)nn(-c2ccc(Cl)cc2Cl)c1-c1ccc(-c2cccnc2)cc1 [Compound 1-18] , please.
[A] 7.21

[Q] Tell me the measured pKi of COCOCc1c(C(=O)NC2CCCCC2)nn(-c2ccc(Cl)cc2Cl)c1-c1ccc(Br)cc1 [Compound 1-13] , please.
[A] 7.82

[Q] Tell me the measured pKi of O=C(NN1CCCCC1)c1nn(-c2ccc(Cl)cc2Cl)c(-c2ccc(-c3cccnc3)cc2)c1CF [Compound 1-6] , please.
[A] 7.82

[Q] Tell me the measured pKi of Cc1c(C(=O)NN2CCCCC2)nn(-c2ccc(Cl)cc2Cl)c1-c1ccc(-c2cccc(Cl)c2)cc1 [Compound 1-1] , please.
[A] 8.82

[Q] Tell me the measured pKi of Cc1c(CCC2CCCCC2)nn(-c2ccc(Cl)cc2Cl)c1-c1ccc(Br)cc1 [Compound 1-27] , please.
[A] 5.98

[Q] Tell me the measured pKi of Cc1c(NC(=O)NC2CCCCC2)nn(-c2ccc(Cl)cc2Cl)c1-c1ccc(I)cc1 [Compound 3-10] , please.
[A] 7.59

[Q] Tell me the measured pKi of O=C(Nc1nn(-c2ccc(Cl)cc2Cl)c(-c2ccc(Br)cc2)c1CBr)NC1CCCCC1 [Compound 3-7] , please.
[A] 7.42

[Q] Tell me the measured pKi of Cc1c(C(=O)NC2CCCCC2)nn(-c2ccc(Cl)cc2Cl)c1-c1ccc(-c2nnn(C)n2)cc1 [Compound 2-9] , please.
[A] 7.70

[Q] Tell me the measured pKi of Cc1c(NC(=O)NC2CCCCC2)nn(-c2ccc(Cl)cc2Cl)c1-c1ccc(-c2cccnc2)cc1 [Compound 2-22] , please.
[A] 7.54

[Q] Tell me the measured pKi of Cc1c(C(=O)NN2CCCCC2)nn(-c2ccc(Cl)cc2Cl)c1-c1ccc(-c2ccc(Cl)cc2)cc1 [Compound 1-2] , please.
[A] 8.24

---

Please provide measured log10 Ki for the entries that follow.
- target or test system: CB1 cannabinoid receptor (Rattus norvegicus, UniProt P20272)
- Construct: membranes were prepared from rat forebrain membranes; from tissue; host or cells: rat forebrain
- protocol: CB1 receptor binding, rat forebrain membranes, [3H] CP-55,940 displacement
- measurement conditions: rat forebrain membranes, 0.8 nM [3H] CP-55,940; read-out: affinities Ki CB1
Scale: decimal log of Ki, Ki in nM.

[Q] Tell me the measured log10 Ki of Cc1c(C(=O)NN2CCCCC2)nn(-c2ccc(Cl)cc2Cl)c1-c1ccc(-c2nnnn2C)cc1 [Compound 2-2] , please.
[A] 1.95

[Q] Tell me the measured log10 Ki of Cc1c(C(=O)N(C)C2CCCCC2)nn(-c2ccc(Cl)cc2Cl)c1-c1ccc(-c2nnn(C)n2)cc1 [Compound 2-15] , please.
[A] 2.02

[Q] Tell me the measured log10 Ki of Cc1c(C(=O)NN2CCCCC2)nn(-c2ccc(Cl)cc2Cl)c1-c1ccc(Br)cc1 [Compound 3-16] , please.
[A] 1.23

[Q] Tell me the measured log10 Ki of Cc1c(C(=O)NN2CCCCC2)nn(-c2ccc(Cl)cc2Cl)c1-c1ccc(C(=O)O)cc1 [Compound 3-24] , please.
[A] 2.87

[Q] Tell me the measured log10 Ki of Cc1c(C(=O)NC2CCCCC2)nn(-c2ccc(Cl)cc2Cl)c1-c1ccc(-c2nnnn2C)cc1 [Compound 2-8] , please.
[A] 2.08

[Q] Tell me the measured log10 Ki of CN(C(=O)c1nn(-c2ccc(Cl)cc2Cl)c(-c2ccc(-c3nnnn3C)cc2)c1CO)C1CCCCC1 [Compound 2-17] , please.
[A] 3.03

[Q] Tell me the measured log10 Ki of COCc1c(C(=O)NC2CCCCC2)nn(-c2ccc(Cl)cc2Cl)c1-c1ccc(Br)cc1 [Compound 1-9] , please.
[A] 0.60

[Q] Tell me the measured log10 Ki of Cc1c(NC(=O)OC2CCCCC2)nn(-c2ccc(Cl)cc2Cl)c1-c1ccc(Br)cc1 [Compound 3-9] , please.
[A] 1.84

[Q] Tell me the measured log10 Ki of COCc1c(C(=O)NC2CCCCC2)nn(-c2ccc(Cl)cc2Cl)c1-c1ccc(-c2ccccn2)cc1 [Compound 1-20] , please.
[A] 1.71
